tested on: NCI-H23; test: NCI tumour cell line growth inhibition, 48 h
Calls of active or inactive are those of the source. Rule as the data show it: active = GI50 up to about 1.1 µM and inactive = higher. Residues, ends and D or L forms follow the SMILES beside them. *: point of attachment. Boc = CC(C)(C)OC(=O)*; OBn = c1ccc(CO*)cc1; Bn = c1ccc(C*)cc1
Classes used: y for active, n for inactive

Compound | Group Label
COc1ccc(CC2NC(=O)/C=C/CC(C(C)C3OC3c3ccccc3)OC(=O)C(CC(C)C)OC(=O)C(C)CNC2=O)cc1Cl (stereo not drawn) | y
CC1CC/C(=C\c2ccc(F)cc2)C(=O)/C1=C/c1ccc(F)cc1 (stereo not drawn) | n
CC(C)CC(NC(=O)C(Cc1ccccc1)NC(=O)C(COCc1ccccc1)NC(=O)OC(C)(C)C)C(=O)OCc1ccccc1 (stereo not drawn) (Boc-Ser(Bn)-Phe-Leu-OBn; configuration not given here) | n

All values here come from ChEMBL document CHEMBL1201862.
